// data source = the supplement of paper PMC10567573

B1: ETS1 (parent)
chain: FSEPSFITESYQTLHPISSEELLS

Variants of: B1
ASSAY_NOTES: protein stability index of a GFP-peptide fusion (GPS, HEK-293T) (PSI 1-6); higher = more stable;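 note: lentivirally expressed fusions sorted by FACS into six bins by GFP to DsRed ratio, PSI derived from sequencing read proportions per bin multiplied by bin number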
MEASUREMENT_CONTEXT: c terminus: a fixed tail appended
MEASURED_ENDPOINT: protein stability index
Lab note: record just the number, no unit beside it.

Exam item: Recorded protein stability index of S2H , please.
Marked response: 2.46
